Target: D(1A) dopamine receptor (Homo sapiens); further: assay procedure not described here
Sequence (P21728 whole entry): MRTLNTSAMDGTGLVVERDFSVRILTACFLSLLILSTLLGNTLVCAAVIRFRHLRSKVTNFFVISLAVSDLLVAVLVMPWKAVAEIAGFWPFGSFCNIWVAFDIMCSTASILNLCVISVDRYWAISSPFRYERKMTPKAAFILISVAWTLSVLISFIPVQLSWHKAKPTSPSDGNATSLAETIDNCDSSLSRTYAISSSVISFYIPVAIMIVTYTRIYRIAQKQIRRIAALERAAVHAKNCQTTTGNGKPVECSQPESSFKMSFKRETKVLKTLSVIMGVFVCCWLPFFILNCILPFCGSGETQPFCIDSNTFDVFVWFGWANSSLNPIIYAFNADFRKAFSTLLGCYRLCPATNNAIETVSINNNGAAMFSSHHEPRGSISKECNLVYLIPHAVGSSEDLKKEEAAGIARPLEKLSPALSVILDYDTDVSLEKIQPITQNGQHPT
measuredEndpoint: AC50

[
  {
    "compound": "CO[C@]12C[C@@H](COC(=O)c3cncc(Br)c3)CN(C)[C@@H]1Cc1cn(C)c3cccc2c13 [NICERGOLINE]",
    "observedMeasurement": "0.393 µM"
  },
  {
    "compound": "CCOC(=O)[C@H](CCc1ccccc1)N[C@@H](C)C(=O)N1CC2(C[C@H]1C(=O)O)SCCS2",
    "observedMeasurement": "> 30 µM"
  },
  {
    "compound": "C=CCc1ccccc1OCC(O)CNC(C)C (stereo unspecified) [ALPRENOLOL]",
    "observedMeasurement": "> 0.3 µM"
  }
]

*Q* Item Cc1oc(=O)oc1CN1CCN(c2cc3c(cc2F)c(=O)c(C(=O)O)c2n3C(C)S2)CC1 (stereo unspecified) [PRULIFLOXACIN] with D(1A) dopamine receptor (Homo sapiens) - AC50?
*A* > 30 µM

*Q* Item Oc1ccccc1 [PHENOL] with D(1A) dopamine receptor (Homo sapiens) - AC50?
*A* > 30 µM

*Q* Item CC[C@H]1[C@@H](O)[C@@H]2[C@H](CC[C@]3(C)[C@@H]([C@H](C)CCC(=O)O)CC[C@@H]23)[C@@]2(C)CC[C@@H](O)C[C@@H]12 [OBETICHOLIC ACID] with D(1A) dopamine receptor (Homo sapiens) - AC50?
*A* > 30 µM

*Q* Item CC1(C)NC(=O)N(c2ccc([N+](=O)[O-])c(C(F)(F)F)c2)C1=O [NILUTAMIDE] with D(1A) dopamine receptor (Homo sapiens) - AC50?
*A* > 30 µM

*Q* Item CC(=O)OCC1=C(C(=O)O)N2C(=O)[C@@H](NC(=O)[C@H](N)c3ccccc3)[C@H]2SC1 [CEPHALOGLYCIN] with D(1A) dopamine receptor (Homo sapiens) - AC50?
*A* > 30 µM

*Q* Item CC(C)COC(=O)OCN1C(=O)CN(CCN2CC(=O)N(COC(=O)OCC(C)C)C(=O)C2)CC1=O [SOBUZOXANE] with D(1A) dopamine receptor (Homo sapiens) - AC50?
*A* > 30 µM

*Q* Item COc1cc2nc(N3CCN(C(=O)c4ccco4)CC3)nc(N)c2cc1OC [PRAZOSIN] with D(1A) dopamine receptor (Homo sapiens) - AC50?
*A* 8.64 µM

Data provenance: ChEMBL document CHEMBL5291721
